Target: PTGER4 (EP4) (Homo sapiens (Human), UniProt P35408)
Sequence (P35408 whole entry): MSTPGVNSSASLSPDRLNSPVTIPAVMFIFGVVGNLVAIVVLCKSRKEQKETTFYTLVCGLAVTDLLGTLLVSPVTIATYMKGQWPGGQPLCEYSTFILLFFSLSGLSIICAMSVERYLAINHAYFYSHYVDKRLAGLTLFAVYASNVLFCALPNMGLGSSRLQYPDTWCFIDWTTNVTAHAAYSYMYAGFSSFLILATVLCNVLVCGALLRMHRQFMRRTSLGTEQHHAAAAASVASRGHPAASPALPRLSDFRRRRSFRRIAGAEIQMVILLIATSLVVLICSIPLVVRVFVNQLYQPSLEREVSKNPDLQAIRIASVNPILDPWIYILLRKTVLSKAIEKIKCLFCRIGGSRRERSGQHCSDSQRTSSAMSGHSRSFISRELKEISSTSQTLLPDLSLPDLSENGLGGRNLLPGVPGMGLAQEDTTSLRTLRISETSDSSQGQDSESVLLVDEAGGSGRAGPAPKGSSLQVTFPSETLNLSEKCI
Assay: cell-based
This listing pairs compounds with measured log10(IC50).
Record value = log10 of IC50 given in nM.

INSERT INTO results (compound, measured_target, recorded_endpoint, data_value) VALUES
  ('CCOc1cc(-c2cc(NCCc3ccc4c(c3)OCCO4)ncn2)sc1C(=O)O [Ex 41]', 'PTGER4 (EP4) (Homo sapiens (Human), UniProt P35408)', 'log10(IC50)', 1.48);

Ask: Need log10(IC50), item COc1cc2c(c(F)c1CCNc1cc(-c3ccc(CC(=O)O)c(OC(F)F)c3)ncn1)OCCO2 [Example 442]
Result: 1.43

Ask: log10(IC50) lookup needed for CCOc1cc(-c2cc(NCCc3ccc4cc[nH]c4c3)ncn2)sc1C(=O)O [Ex 24] , thanks.
Result: 1.26

Ask: Requested field: log10(IC50). Item: CCCc1cc(-c2cc(NCCc3ccc4sccc4c3F)ncn2)ccc1C(C)C(=O)O (racemic) [Example 482]
Result: 1.96

Ask: Entry under review: O=C(O)c1ccc(-c2cc(NCCc3cc(F)c4sccc4c3)ncn2)cc1 [Example 496] . Reported log10(IC50)?
Result: 2.96

Ask: Any idea what its log10(IC50) is? The compound is CCCOc1cc(-c2cc(NCCc3cc4c(cc3OC)OCCO4)ncn2)ccc1CC(=O)O [Example 480]
Result: 2.32

Ask: log10(IC50) lookup needed for CCCc1cc(-c2cc(NCCc3cc4c(cc3OC)OCCO4)ncn2)ccc1CC(=O)O [Example 387] , thanks.
Result: 1.69

Ask: Name the reported log10(IC50) value associated with the compound CSc1cc(-c2cc(NCCc3cc(Cl)c4sccc4c3)ncn2)ccc1C(=O)O [Example 360]
Result: 1.84

Ask: Sample CCOc1cc(-c2cc(NCCc3ccc4sccc4c3)ncn2)sc1-c1noc(=O)[nH]1 [Example 340] — what was its log10(IC50)?
Result: 0.48

Ask: Give its log10(IC50) value. Item: CCCc1cc(-c2cc(NCCc3cc4ccsc4cc3OC)ncn2)ccc1CC(=O)O [Example 385]
Result: 1.85

Ask: Would you mind telling me what log10(IC50) value was observed for CCOc1cc(-c2cc(NCCc3c(OC)cc4occc4c3C)ncn2)sc1C(=O)O [Ex 8] ?
Result: 1.34

Ask: // query log10(IC50) value for entry CCOc1cc(-c2cc(NCCc3cc4ccccc4cc3C)ncn2)ccc1C(=O)O [Ex 240]
Result: 2.78

Ask: Reported log10(IC50) for CCOc1cc(-c2cc(NCCc3c(F)c(F)c4cc(C)oc4c3OC)ncn2)ccc1C(=O)O [Ex 215] : what is it?
Result: 2.58

Ask: May I ask what log10(IC50) has been recorded for COc1cc2ccccc2c(C)c1CCNc1cc(-c2ccc(CC(=O)O)c(OC(F)F)c2)ncn1 [Example 443] ?
Result: 1.46

Ask: Entry CCOc1cc(-c2cc(NCCc3ccc4ccccc4c3C)ncn2)sc1/C=C/C(=O)O [Ex 130] : reported log10(IC50) = ?
Result: 1.36

Ask: What value of log10(IC50) has been recorded for this entry: CCOc1cc(-c2cc(NCCc3ccc4ccccc4c3F)ncn2)sc1C(=O)O [Ex 11]
Result: 1.11

Ask: Reported log10(IC50) for C#Cc1cc2ccccc2cc1CCNc1cc(-c2ccc(OCC(=O)O)c(OCC)c2)ncn1 [Ex 103] : what is it?
Result: 1.26
